test system: Escherichia coli TOP10; assay: shrunken log2 fold change of peptide-encoding DNA abundance (4.5 h post-induction vs induction); higher = less antimicrobial activity (less host growth inhibition); conditions: time post-induction: 4.5 h; library: site-saturation at positions 5, 18, 19, 20;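 note: peptides expressed intracellularly from a pBAD plasmid library in pooled LB shake-flask culture, induced with 0.3% L-arabinose, DNA abundance read by NGS, three biological replicates, DESeq2 with apeglm shrinkage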
Class field: derived from shrunken log2 fold change; ranges bottom range: < -0.3; center range: ≥ -0.3 and < -0.02; top range: ≥ -0.02

Categorize the following entry: RRIRTRPPRLPRPRPRPIGVPRP
center range

Categorize the following entry: RRIRLRPPRLPRPRPRPEMLPRP
center range

Categorize the following entry: RRIRWRPPRLPRPRPRPNKLPRP
center range

Categorize the following entry: RRIRVRPPRLPRPRPRPSFGPRP
bottom range

Categorize the following entry: RRIRVRPPRLPRPRPRPYWQPRP
center range

Categorize the following entry: RRIRDRPPRLPRPRPRPWIGPRP
top range

Categorize the following entry: RRIRQRPPRLPRPRPRPDIGPRP
center range

Categorize the following entry: RRIRSRPPRLPRPRPRPIHWPRP
top range

Categorize the following entry: RRIRWRPPRLPRPRPRPWYFPRP
top range

Categorize the following entry: RRIRARPPRLPRPRPRPHNRPRP
top range

Categorize the following entry: RRIRGRPPRLPRPRPRPYTCPRP
center range

Categorize the following entry: RRIRFRPPRLPRPRPRPSYMPRP
bottom range

Categorize the following entry: RRIRCRPPRLPRPRPRPKWIPRP
bottom range

Categorize the following entry: RRIRPRPPRLPRPRPRPHWCPRP
center range

Recorded values, source the supplement of paper PMC9112550.
